# Test system: TE-10;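 also: growth inhibition of TE-10 cells, measured by a cell viability assay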
# Protocol summary: cells
# Format: functional, cell-based, Homo sapiens
# Recorded conditions: Homo sapiens, TE-10
# Description: SANGER: Inhibition of human TE-10 cell growth in a cell viability assay.
pIC50: −log10 of the molar value.
Catalogue of molecules with associated pIC50

As a guide, the following entries are already answered.
| Molecule | Study system | pIC50 |
| --- | --- | --- |
| NC(=O)c1cccc(-c2cc(Nc3ccc(OC(F)(F)F)cc3)ncn2)c1 | TE-10 | < 5.89 |
| C=CC(=O)N1CCCC(Nc2nc(Nc3ccc(N(C)C(=O)CC)cc3)nc3[nH]cnc23)C1 (stereo not given) | TE-10 | < 4.99 |
| CC1=C(/C=C/C(C)=C/C=C/C(C)=C/C(=O)O)C(C)(C)CCC1 | TE-10 | < 5.00 |
| Cc1ccc(NC(=O)c2ccc(CN3CCN(C)CC3)cc2)cc1Nc1nccc(-c2cccnc2)n1 | TE-10 | < 5.70 |

Field: next molecule
The molecule CC(C)C[C@H](NC(=O)[C@H](Cc1ccccc1)NC(=O)c1cnccn1)B(O)O , tested on TE-10, showed pIC50 of 8.99
